TARGET OR SYSTEM: NACHT, LRR and PYD domains-containing protein 3 (Mus musculus)
ASSAY INFO: Inhibition of NLRP3 in mouse J774.A1 cells assessed as reduction in LPS/ATP induced IL-1beta secretion
Format: cell-based
REPORTED PROPERTY: pIC50
Note on pIC50: it is the negative log10 of concentration, concentration in mol/L.

So, CCOCCOc1ccc(/C=C/c2cc(OC)cc(OC)c2/C=C/[N+](=O)[O-])cc1 ? Its pIC50 was 5.62

---

TARGET OR SYSTEM: NACHT, LRR and PYD domains-containing protein 3 (Homo sapiens, UniProt Q96P20)
Sequence (Q96P20 whole entry, the tested form may be a part): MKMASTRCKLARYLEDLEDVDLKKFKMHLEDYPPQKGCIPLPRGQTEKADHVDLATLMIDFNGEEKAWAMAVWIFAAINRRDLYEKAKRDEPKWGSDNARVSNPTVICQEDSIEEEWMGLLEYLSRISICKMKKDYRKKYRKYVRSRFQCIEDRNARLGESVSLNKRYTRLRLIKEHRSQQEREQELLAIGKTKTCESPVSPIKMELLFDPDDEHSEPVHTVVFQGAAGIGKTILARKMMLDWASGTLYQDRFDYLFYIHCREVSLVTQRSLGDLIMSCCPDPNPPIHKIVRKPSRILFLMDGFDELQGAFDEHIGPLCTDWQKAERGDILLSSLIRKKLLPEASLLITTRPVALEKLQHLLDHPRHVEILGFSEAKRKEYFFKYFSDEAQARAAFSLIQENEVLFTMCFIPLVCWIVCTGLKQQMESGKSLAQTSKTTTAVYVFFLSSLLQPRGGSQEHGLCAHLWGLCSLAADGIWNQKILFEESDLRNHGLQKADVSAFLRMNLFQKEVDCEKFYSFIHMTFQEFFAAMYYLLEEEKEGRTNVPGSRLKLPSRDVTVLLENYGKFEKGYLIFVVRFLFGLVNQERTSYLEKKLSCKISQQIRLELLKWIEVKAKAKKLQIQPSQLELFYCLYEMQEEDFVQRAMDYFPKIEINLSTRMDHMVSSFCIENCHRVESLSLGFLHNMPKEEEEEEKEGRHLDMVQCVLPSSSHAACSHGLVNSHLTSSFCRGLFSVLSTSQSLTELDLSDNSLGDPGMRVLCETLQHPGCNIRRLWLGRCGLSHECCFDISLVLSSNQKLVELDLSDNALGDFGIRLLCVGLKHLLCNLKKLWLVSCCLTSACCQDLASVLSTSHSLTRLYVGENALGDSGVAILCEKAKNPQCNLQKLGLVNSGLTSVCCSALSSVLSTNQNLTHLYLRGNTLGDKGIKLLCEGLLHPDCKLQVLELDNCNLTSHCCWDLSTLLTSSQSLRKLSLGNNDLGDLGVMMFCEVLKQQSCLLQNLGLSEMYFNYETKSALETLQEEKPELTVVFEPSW
ASSAY INFO: Inhibition of NLRP3 inflammasome in human MDM cells assessed as reduction in LPS/nigericin induced IL-1beta secretion […] prior to nigericin addition and measured after 5 hrs by ELISA
Type: cell-based
REPORTED PROPERTY: IC50 (nM)
Respond numerically; units are nM and should not be typed.

Hey, NACHT, LRR and PYD domains-containing protein 3 (Homo sapiens, UniProt Q96P20) data for CS(=O)(=O)CCC#N : IC50 came out at 1000

---

TARGET OR SYSTEM: NACHT, LRR and PYD domains-containing protein 3 (Mus musculus, UniProt Q8R4B8)
Sequence (Q8R4B8 whole entry, the tested form may be a part): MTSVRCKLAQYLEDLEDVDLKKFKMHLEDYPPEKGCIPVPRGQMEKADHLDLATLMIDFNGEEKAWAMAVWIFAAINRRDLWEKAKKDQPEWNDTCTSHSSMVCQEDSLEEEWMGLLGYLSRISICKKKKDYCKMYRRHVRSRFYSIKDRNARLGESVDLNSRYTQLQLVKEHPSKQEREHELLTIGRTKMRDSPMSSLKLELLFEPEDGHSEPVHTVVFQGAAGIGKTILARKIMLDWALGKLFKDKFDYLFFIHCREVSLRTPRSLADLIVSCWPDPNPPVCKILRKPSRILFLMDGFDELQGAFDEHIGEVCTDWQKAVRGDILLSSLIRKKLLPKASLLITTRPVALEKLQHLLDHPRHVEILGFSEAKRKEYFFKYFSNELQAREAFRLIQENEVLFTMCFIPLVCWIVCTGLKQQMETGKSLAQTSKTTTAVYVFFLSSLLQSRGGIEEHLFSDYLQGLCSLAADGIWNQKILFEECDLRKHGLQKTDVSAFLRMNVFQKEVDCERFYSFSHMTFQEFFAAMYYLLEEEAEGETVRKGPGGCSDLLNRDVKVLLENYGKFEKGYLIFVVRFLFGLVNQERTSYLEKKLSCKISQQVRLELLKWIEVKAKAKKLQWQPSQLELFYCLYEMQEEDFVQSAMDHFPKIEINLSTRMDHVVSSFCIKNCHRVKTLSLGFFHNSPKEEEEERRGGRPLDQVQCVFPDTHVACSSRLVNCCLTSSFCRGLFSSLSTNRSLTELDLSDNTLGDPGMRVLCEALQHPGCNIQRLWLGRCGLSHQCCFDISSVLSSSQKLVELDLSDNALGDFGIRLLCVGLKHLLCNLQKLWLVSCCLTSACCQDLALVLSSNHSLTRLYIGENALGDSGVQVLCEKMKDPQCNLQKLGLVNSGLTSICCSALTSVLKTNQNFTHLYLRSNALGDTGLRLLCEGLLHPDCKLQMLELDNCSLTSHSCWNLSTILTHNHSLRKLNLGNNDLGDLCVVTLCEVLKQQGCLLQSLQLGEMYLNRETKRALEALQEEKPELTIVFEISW
ASSAY INFO: Covalent inhibition of NLRP3 in mouse BMDMs assessed as reduction in LPS/nigericin induced IL-1beta secretion pretreated with LPS for 3 hrs followed by compound addition for 30 mins prior to nigericin addition and measured after 30 mins by ELISA
Format: cell-based, BMDM
REPORTED PROPERTY: IC50 (nM)
Respond numerically; units are nM and should not be typed.

So, O=C(CBr)NCc1ccc(C(F)(F)F)cc1 ? Its IC50 was 183

---

// values below are reported pIC50
TARGET OR SYSTEM: NACHT, LRR and PYD domains-containing protein 3 (Mus musculus, UniProt Q8R4B8)
ASSAY INFO: Inhibition of NLRP3 inflammasome in mouse BMDMs assessed as reduction in IL-1beta activity preincubated with LPS for 4 hrs followed by compound addition for 30 mins prior to nigericin addition and measured after 1 hr by ELISA
Format: cell-based, BMDM
Note on pIC50: it is the negative log10 of concentration, concentration in mol/L.

1. CC1=C(O)C(=O)C=C2C1=CC=C1[C@@]2(C)[C@@H](Br)C[C@@]2(C)[C@@H]3C[C@@H](C)C(=O)C[C@]3(C)CC[C@]12C ... 6.72

Now consider a different molecule.
Hey, NACHT, LRR and PYD domains-containing protein 3 (Mus musculus, UniProt Q8R4B8) data for COc1c(O)cc2c(c1C)C(=O)C=C1[C@@]2(C)CC[C@@]2(C)[C@@H]3C[C@@H](C)C(=O)[C@@H](O)[C@]3(C)CC[C@]12C : pIC50 came out at 5.94

---

TARGET OR SYSTEM: NACHT, LRR and PYD domains-containing protein 3 (Homo sapiens, UniProt Q96P20)
ASSAY INFO: Inhibition of NLRP3 in LPS/ATP induced human THP1 cells
Format: cell-based, THP-1
REPORTED PROPERTY: pIC50
Note on pIC50: it is the negative log10 of concentration, concentration in mol/L.

So, C=C1C(=O)[C@]23[C@H](O)[C@H]1CC[C@H]2[C@@]12CO[C@]3(O)[C@@H](O)[C@@H]1C(C)(C)CC[C@@H]2O [ORIDONIN] ? Its pIC50 was 5.29

---

ASSAY INFO: Cytotoxicity against mouse J774.A1 cells
Format: toxicity, cell-based
TEST PARAMETERS: read-out: TC50 (the source's name)
REPORTED PROPERTY: CC50 (µM)
Respond numerically; units are µM and should not be typed.

Answered cases to consult:
1) Cc1ccc(S(=O)(=O)/C=C/C#N)cc1 ... 6.4
2) O=C(/C=C/S(=O)(=O)c1ccccc1Cl)OCCc1ccccc1 ... 41.8

Now consider a different molecule.
So, NS(=O)(=O)c1ccc(CCNC(=O)/C=C/S(=O)(=O)c2ccccc2Cl)cc1 ? Its CC50 was 27.5

---

ASSAY INFO: Inhibition of porcine whole blood NLRP3 assessed as reduction in LPS/ATP induced IL-1beta secretion preincubated for 3 hrs in presence of LPS followed by ATP addition and measured after 1 hr by immunoassay
TEST PARAMETERS: Sus scrofa
REPORTED PROPERTY: IC50 (nM)
Respond numerically; units are nM and should not be typed.

So, CCN1CCC(S(=O)(=O)NC(=O)Nc2c3c(cc4c2CCC4)CCC3)CC1 [SELNOFLAST] ? Its IC50 was 350

---

ASSAY INFO: Cmax in human at 1000 mg per day, po administered for 8 consecutive days
Type: ADME, organism-based
TEST PARAMETERS: in vivo
REPORTED PROPERTY: Cmax (ng/mL)
Respond numerically; units are ng/mL and should not be typed.

So, CS(=O)(=O)CCC#N ? Its Cmax was 41400

---

ASSAY INFO: Stability in human liver microsomes assessed as compound remaining after 60 mins
Format: ADME, Microsome
TEST PARAMETERS: read-out: Stability
REPORTED PROPERTY: remaining at 1 h

So, CC(C)(O)c1coc(S(=O)(=O)NC(=O)Nc2c3c(cc4c2CCC4)CCC3)c1 ? Its remaining at 1 h was > 70%

---

ASSAY INFO: Solubility of the compound at pH 1.5
Assay type: physicochemical
TEST PARAMETERS: buffer
REPORTED PROPERTY: solubility (mg/mL)
Respond numerically; units are mg/mL and should not be typed.

So, CN[C@@H]1COc2c(S(=O)(=O)NC(=O)Nc3c4c(cc5c3CCC5)CCC4)cnn2C1 ? Its solubility was 5.76

---

TARGET OR SYSTEM: NACHT, LRR and PYD domains-containing protein 3 (Homo sapiens, UniProt Q96P20)
ASSAY INFO: Inhibition of NLRP3 in human THP-1 cells assessed as reduction in LPS/ATP induced IL-1beta release at 10 uM preincubated with LPS for 4 hrs followed by compound addition for 1 hr prior to ATP stimulation for 1.5 hrs by ELISA relative to control
Assay type: cell-based
TEST PARAMETERS: time 2.5 hrs
Criterion: inhibition meeting or surpassing 20%. Met: Condition met. Not met: Condition not met.

The examples below pair each entry with its known result.
1. C=C(Cc1ccccc1Cl)C(=O)N1CCC(n2c(=O)[nH]c3ccccc32)CC1 ... Condition not met
2. O=C(O)Cn1c(=O)n(C(=O)CCc2ccccc2Cl)c2ccccc21 ... Condition met
3. N#C/N=C(\NCc1ccccc1)NC1CCN(C(=O)CCc2ccccc2Cl)CC1 ... Condition met

Then there is this molecule:
Say whether O=C(CCc1ccccc1Cl)N1CCC(n2c(=O)[nH]c3ccccc32)CC1 shows inhibition of 20% or more.
Condition not met
